Source listed as PubChem BioAssay AID2541.

TARGET_OR_TEST_SYSTEM: NADPH oxidase 1 (Homo sapiens) (UniProt Q9Y5S8)
Sequence (Q9Y5S8 whole entry, looked up): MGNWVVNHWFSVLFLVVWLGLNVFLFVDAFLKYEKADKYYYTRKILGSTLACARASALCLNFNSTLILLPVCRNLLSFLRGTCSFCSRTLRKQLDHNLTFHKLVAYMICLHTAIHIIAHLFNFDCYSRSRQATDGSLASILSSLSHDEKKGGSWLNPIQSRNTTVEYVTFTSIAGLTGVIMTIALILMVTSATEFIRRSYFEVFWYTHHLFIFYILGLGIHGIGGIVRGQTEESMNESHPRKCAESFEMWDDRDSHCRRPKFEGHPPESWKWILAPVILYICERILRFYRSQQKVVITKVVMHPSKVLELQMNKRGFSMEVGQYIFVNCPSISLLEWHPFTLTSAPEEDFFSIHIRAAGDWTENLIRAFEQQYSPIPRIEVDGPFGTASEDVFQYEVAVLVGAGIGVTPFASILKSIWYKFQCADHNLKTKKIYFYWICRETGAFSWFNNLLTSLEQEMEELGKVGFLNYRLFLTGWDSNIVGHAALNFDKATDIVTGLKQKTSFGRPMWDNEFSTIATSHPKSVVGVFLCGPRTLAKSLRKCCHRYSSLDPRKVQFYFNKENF
MEASUREMENT_DESCRIPTION: NOX1 inhibitors in colonic epithelial cells, confirmation, luminescence, HT29 cells (AID 2541)
STATED_CONDITIONS: luminol ROS chemiluminescence, 1 h, at 3.3 µM
The source made the active and inactive calls.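 Rule for the calls: active = inhibition of at least 50%; inactive = inhibition below 50%.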
Possible outcomes: active, inactive

[[record]]
compound = "O=C(Nc1ccc(Cl)cc1Cl)c1cc([N+](=O)[O-])cc2c1-c1ccc([N+](=O)[O-])cc1C2=O"
class_label = "inactive"

[[record]]
compound = "Cc1nc(C(F)(F)F)c(C(=O)NNc2ncc(C(F)(F)F)cc2Cl)s1"
class_label = "active"

[[record]]
compound = "CN(C)c1ccc(NC(=O)Nc2cccs2)cc1"
class_label = "inactive"

[[record]]
compound = "Cc1cc(S(=O)(=O)NNc2ncnc3c2cnn3C)c(C)cc1Cl"
class_label = "active"

[[record]]
compound = "COc1cc(-c2nc(-c3ccccc3)c(-c3ccccc3)[nH]2)ccc1O"
class_label = "active"

[[record]]
compound = "COc1ccc(C(=O)NNc2c([N+](=O)[O-])cc(C(F)(F)F)cc2[N+](=O)[O-])cc1"
class_label = "active"

[[record]]
compound = "O=C(NNc1c([N+](=O)[O-])cc(C(F)(F)F)cc1[N+](=O)[O-])c1ccco1"
class_label = "active"

[[record]]
compound = "CC1(C)CC(Nc2ccc(Nc3ccccc3)cc2)CC(C)(C)N1"
class_label = "active"

[[record]]
compound = "O=C1C=C(I)C(=O)C=C1I"
class_label = "active"

[[record]]
compound = "O=[N+]([O-])c1cc(C(F)(F)F)cc([N+](=O)[O-])c1Sc1ncc2ccccn12"
class_label = "inactive"

[[record]]
compound = "CN(C)c1ccc(NC(=O)Nc2ccc(OCc3ccccc3)cc2)cc1"
class_label = "active"

[[record]]
compound = "c1ccc2c(c1)Nc1nc3ccccc3nc1N2"
class_label = "active"

[[record]]
compound = "CCC(=O)Nc1ccc2c(c1)N(CC)C(C)(C)CC2C (stereo not drawn)"
class_label = "active"

[[record]]
compound = "CCN(CC)c1ccc(NC(=O)c2c(F)cccc2F)c(N(CC)CC)n1"
class_label = "inactive"

[[record]]
compound = "O=C1C=CC(=O)N1CCc1ccccc1"
class_label = "inactive"

[[record]]
compound = "O=C(Oc1ccccc1N1CCOCC1)c1cccnc1Oc1ccccc1"
class_label = "active"

[[record]]
compound = "CC(C)(C)c1cc2nc(C(F)(F)F)cc(NNC(=O)Nc3ccc(OC(F)(F)F)cc3)n2n1"
class_label = "inactive"

[[record]]
compound = "O=S(=O)(Nc1ccc(N2CCCCC2)cc1)c1ccccc1"
class_label = "active"

[[record]]
compound = "CCC1=Nc2cccc3cccc(c23)N1"
class_label = "inactive"

[[record]]
compound = "Cc1oc(-c2ccc(Cl)cc2)cc1C(=O)O/N=C(\\N)Cc1nc2cccnc2n1C1CC1"
class_label = "inactive"

[[record]]
compound = "COc1ccc2c(c1)CCCN2Cc1c[nH]c2ccccc12"
class_label = "inactive"

[[record]]
compound = "Cc1ccc(NCN2C(=O)c3ccc([N+](=O)[O-])cc3C2=O)cc1"
class_label = "inactive"

[[record]]
compound = "COc1cccc(C(=O)CSc2nsc(SCC(=O)c3cccc(OC)c3)c2C#N)c1"
class_label = "inactive"

